# experimentalSystem: soluble guanylate cyclase (human GUCYA3 and GUCYB3) overexpressed in CHO cells (Homo sapiens (Human), UniProt Q02108+Q02153)
# Sequence (Q02108 whole entry partner): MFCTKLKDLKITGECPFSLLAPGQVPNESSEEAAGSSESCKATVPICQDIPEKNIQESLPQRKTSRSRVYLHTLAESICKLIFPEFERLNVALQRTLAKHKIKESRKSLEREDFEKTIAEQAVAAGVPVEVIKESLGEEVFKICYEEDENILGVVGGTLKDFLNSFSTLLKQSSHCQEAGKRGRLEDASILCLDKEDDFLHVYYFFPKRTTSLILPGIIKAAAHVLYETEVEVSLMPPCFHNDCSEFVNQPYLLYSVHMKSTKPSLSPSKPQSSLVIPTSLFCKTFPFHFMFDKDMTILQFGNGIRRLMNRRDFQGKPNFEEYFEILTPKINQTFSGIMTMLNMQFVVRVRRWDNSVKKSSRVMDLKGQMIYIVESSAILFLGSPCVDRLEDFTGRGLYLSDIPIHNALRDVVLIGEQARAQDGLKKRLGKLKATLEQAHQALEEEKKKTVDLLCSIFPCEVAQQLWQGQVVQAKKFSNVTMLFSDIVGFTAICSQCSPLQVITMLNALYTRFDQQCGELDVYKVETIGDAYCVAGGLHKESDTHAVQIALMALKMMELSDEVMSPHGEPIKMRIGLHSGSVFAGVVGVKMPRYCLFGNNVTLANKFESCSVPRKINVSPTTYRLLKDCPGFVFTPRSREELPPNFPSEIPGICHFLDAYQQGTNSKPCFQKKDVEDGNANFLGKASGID
# Sequence (Q02153 whole entry): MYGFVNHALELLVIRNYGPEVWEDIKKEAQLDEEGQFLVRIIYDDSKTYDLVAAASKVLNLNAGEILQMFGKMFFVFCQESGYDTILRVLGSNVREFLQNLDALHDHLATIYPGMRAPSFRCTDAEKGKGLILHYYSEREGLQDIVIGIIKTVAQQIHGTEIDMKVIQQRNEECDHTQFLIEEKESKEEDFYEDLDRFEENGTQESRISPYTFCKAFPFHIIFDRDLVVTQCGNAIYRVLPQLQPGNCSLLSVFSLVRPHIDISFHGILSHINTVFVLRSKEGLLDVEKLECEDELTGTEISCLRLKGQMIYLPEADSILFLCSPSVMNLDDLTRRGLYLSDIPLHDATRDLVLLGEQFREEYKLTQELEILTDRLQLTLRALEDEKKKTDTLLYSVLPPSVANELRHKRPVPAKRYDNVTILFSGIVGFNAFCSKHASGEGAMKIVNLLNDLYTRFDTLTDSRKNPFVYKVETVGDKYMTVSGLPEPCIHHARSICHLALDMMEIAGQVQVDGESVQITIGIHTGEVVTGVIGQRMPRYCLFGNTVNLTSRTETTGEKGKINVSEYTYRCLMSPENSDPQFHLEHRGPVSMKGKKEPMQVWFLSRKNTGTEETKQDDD
# testMethodNotes: CHO cellular assay (cGMP production, Cisbio cGMP HTRF kit)
# Type: cell-based
# conditionLabel: CHO GUCY clone 8E10, cGMP production, assay buffer with 1 mM IBMX and 20 uM ODQ, 1 h room temperature; minimum quantification limit 0.5 nM (listed 0.5 nM means ≤0.5 nM); read-out: EC50
Exam item: assign Met to entries whose EC50 is below 4 nM and Not met to entries at or above 4 nM. Note that a value of exactly 4 nM receives Not met.

INSERT INTO assay_data (molecule, labelvalue) VALUES
  ('Cc1cc(C2CCN(C(=O)CO)CC2)ccc1NC1CCc2cccc(-c3cccc(-n4ncc(C(=O)O)c4C(F)(F)F)c3)c21 (single isomer, unassigned; (+))', 'Met'),
  ('Cc1cc(C2CCN(C(=O)[C@H](C)O)CC2)ccc1NC1COc2cccc(-c3cccc(-n4ncc(C(=O)O)c4C)n3)c21 (single isomer, unassigned; (-)) [Example 35b]', 'Not met'),
  ('Cc1cc(C2CCN(C(=O)C3CCC3)CC2)ccc1NC1CCc2cccc(-c3cccc(-n4ncc(C(=O)O)c4C)n3)c21 (single isomer, unassigned; (-)) [Example 45b]', 'Met');

(Q) hey, is EC50 for Cc1cc(C2CCN(C(=O)C3CC3)CC2)ccc1NC1CCc2cccc(-c3cccc(-n4ncc(C(=O)O)c4C)c3)c21 (racemic) [Example 11-4] lower than 4 nM or not?
(A) Met

(Q) Item: CCc1cc(CC2CCc3cccc(-c4cccc(-n5ncc(C(=O)O)c5C)c4)c32)ccc1C1CCN(C(=O)C2CC2)CC1 (single isomer, unassigned; (+)) [55-1 (+)]
(A) Met

(Q) Next record, please: Cc1cc(C2CCN(C(=O)C(C)C)CC2)ccc1NC1CCc2cccc(-c3cccc(-n4ncc(C(=O)O)c4C)n3)c21 (single isomer, unassigned; (-)) [(−)-46-1]
(A) Not met

(Q) Here is the next molecule: CCc1cc(NC2COc3cccc(-c4cccc(-n5ncc(C(=O)O)c5CC)n4)c32)ccc1C1CCN(C(=O)C2CC2)CC1 (single isomer, unassigned; (+)) [(+)-36-2]
(A) Met

(Q) Cool, now `Cc1cc(C2CCN(C(=O)C3CC3)CC2)ccc1O[C@H]1CCc2cccc(-c3cccc(-n4ncc(C(=O)O)c4C)n3)c21`
(A) Met

(Q) Try this molecule next: `CCc1c(C(=O)O)cnn1-c1cccc(-c2cccc3c2[C@@H](Oc2ccc(C4CCN(CC(F)(F)F)CC4)cc2C)CC3)n1`
(A) Met

(Q) Also need Cc1cc(C2CCN(C(=O)C3CC3)CC2)ccc1NC1CCc2cccc(-c3cccc(-n4ncc(C(=O)O)c4C(F)(F)F)n3)c21 (single isomer, unassigned; (-)) [Example (−)-8. b)] , thanks.
(A) Not met

(Q) Also, `O=C(O)c1cnn(-c2cccc(-c3cccc4c3N(Cc3ccc(C5CCN(C(=O)C6CC6)CC5)cc3)CC4)n2)c1C(F)(F)F` please.
(A) Met

(Q) Next molecule up: Cc1c(C(=O)O)cnn1-c1cccc(-c2cccc3c2C(Nc2ccc(C4CCN(C(=O)C5CC5)CC4)cc2)CC3)n1 (single isomer, unassigned; (+)) [Example 9. b). (+)]
(A) Met

(Q) Subsequent entry: CCc1c(C(=O)O)cnn1-c1cccc(-c2cccc3c2C(Cc2ccc(C4CCN(C(=O)OC)CC4)cc2C)CC3)n1 (single isomer, unassigned; (+)) [Example 42. b). (+)]
(A) Met

(Q) Try the molecule CCC(=O)N1CCC(c2ccc(NC3CCc4cccc(-c5cccc(-n6ncc(C(=O)O)c6C)n5)c43)c(C)c2)CC1 (single isomer, unassigned; (-)) [(−)-46-2]
(A) Not met
